Recorded values, source patent US20260355137A1.

- Test system: intraocular pressure, induced left eye
- procedure_summary: Intraocular pressure, tonometer (Table 13)
- Type: in vivo, New Zealand rabbit
- Set-up: unit not given beside the values
- cond: left eye induced/treated, Day 3
observed_property: Intraocular Pressure, mean
Keep the answer to the number alone.

Param readout= Intraocular Pressure, mean; system= intraocular pressure, induced left eye; entry= `O=C(/C=C/c1ccc(O)c(O)c1)O[C@H](Cc1ccc(O)c(O)c1)C(=O)O` ; returns value. 83.15

# query: Intraocular Pressure, mean | item O=C(/C=C/c1ccc(O)c(O)c1)NCCc1ccccc1 [Caffeic Acid Phenylethyl Amide, caffeic acid phenylethyl amide] | system: intraocular pressure, induced left eye 86.65

Provide the documented Intraocular Pressure, mean with intraocular pressure, induced left eye as the system for `O=C(/C=C/c1ccc(O)c(O)c1)OCCc1ccccc1` 88.07

Please tell me: Intraocular Pressure, mean of `O=C(O)/C=C/c1ccc(O)c(O)c1` , system intraocular pressure, induced left eye? 90.35

* * *

- System: intraocular pressure, induced left eye
- procedure_summary: Intraocular pressure, tonometer (Table 13)
- Type: in vivo, New Zealand rabbit
- Set-up: unit not given beside the values
- cond: left eye induced/treated, Day 18
observed_property: Intraocular Pressure, mean
Please reply with the number alone, leaving off any unit.

Worked examples, 3 compounds total:
>  <compound>
O=C(O)/C=C/c1ccc(O)c(O)c1

>  <Intraocular Pressure, mean>
45.73

$$$$
>  <compound>
O=C(/C=C/c1ccc(O)c(O)c1)OCCc1ccccc1

>  <Intraocular Pressure, mean>
42.18

$$$$
>  <compound>
O=C(/C=C/c1ccc(O)c(O)c1)O[C@H](Cc1ccc(O)c(O)c1)C(=O)O

>  <Intraocular Pressure, mean>
48.48

$$$$

Bench note: what Intraocular Pressure, mean did O=C(/C=C/c1ccc(O)c(O)c1)NCCc1ccccc1 [Caffeic Acid Phenylethyl Amide, caffeic acid phenylethyl amide] show? 49.95

* * *

- Test system: intraocular pressure, induced left eye
- procedure_summary: Intraocular pressure, tonometer (Table 13)
- Type: in vivo, New Zealand rabbit
- Parameters: unit not given beside the values
- cond: left eye induced/treated, Day 6
observed_property: Intraocular Pressure, mean
Returns: the value as a bare number; no unit string appended.

Request the reported Intraocular Pressure, mean associated with `O=C(/C=C/c1ccc(O)c(O)c1)O[C@H](Cc1ccc(O)c(O)c1)C(=O)O` 77.55

Item under review: O=C(/C=C/c1ccc(O)c(O)c1)NCCc1ccccc1 [Caffeic Acid Phenylethyl Amide, caffeic acid phenylethyl amide] . Reported Intraocular Pressure, mean? 79.88

Tell me the measured Intraocular Pressure, mean of `O=C(/C=C/c1ccc(O)c(O)c1)OCCc1ccccc1` , please. 84.95

Using the record for `O=C(O)/C=C/c1ccc(O)c(O)c1` , report its Intraocular Pressure, mean. 63.22

* * *

This listing pairs molecules with measured Intraocular Pressure, mean.
- Tested on: intraocular pressure, induced left eye
- procedure_summary: Intraocular pressure, tonometer (Table 13)
- Assay type: in vivo, New Zealand rabbit
- Set-up: unit not given beside the values
- cond: left eye induced/treated, Day 30
Format: numeric value only, no unit, no commentary.

Completed entries (count: 3):
>  <molecule>
O=C(/C=C/c1ccc(O)c(O)c1)NCCc1ccccc1 [Caffeic Acid Phenylethyl Amide, caffeic acid phenylethyl amide]

>  <test_value>
25.85

$$$$
>  <molecule>
O=C(O)/C=C/c1ccc(O)c(O)c1 [Caffeic acid]

>  <test_value>
30.78

$$$$
>  <molecule>
O=C(/C=C/c1ccc(O)c(O)c1)O[C@H](Cc1ccc(O)c(O)c1)C(=O)O [Rosmarinic acid]

>  <test_value>
23.27

$$$$

Okay, next one:
Consider the molecule O=C(/C=C/c1ccc(O)c(O)c1)OCCc1ccccc1 [Caffeic Acid Phenyl ethyl Ester, caffeic acid phenylethyl ester] and give its measured Intraocular Pressure, mean. 39.42
